# assay-procedure: Solubility in water at pH 7 after 15 mins by HPLC method
# Type: physicochemical
# conditions: water, pH 7
value-kind: solubility at 0.25 h (µg/mL)
Could you give me the number in µg/mL? Just the number is fine.

Field solubility at 0.25 h (entry CC1(COCc2ccc(OC(F)(F)F)cc2)Cn2cc([N+](=O)[O-])nc2S1 (centres undefined) ) reads 2.4

Reported solubility at 0.25 h of CC1(COc2ccc(N3CCC(Oc4ccc(OC(F)(F)F)cc4)CC3)cc2)Cn2cc([N+](=O)[O-])nc2S1 (centres undefined) : 0.18

Notebook: CC1(COc2ccc(-c3ccc(OC(F)(F)F)cc3)cc2)Cn2cc([N+](=O)[O-])nc2S1 (centres undefined) , solubility at 0.25 h read as 0.25

response.value for CC1(COCc2ccc(OC(F)(F)F)cc2)Cn2cc([N+](=O)[O-])nc2O1 (centres undefined) (field: solubility at 0.25 h) = 11

###

# assay-procedure: Cytotoxicity against human MRC5 SV2 cells after 72 hrs by resazurin dye based fluorescence assay
# Assay type: cell-based
# conditions: Homo sapiens, MRC-5 SV2, 72 h
value-kind: IC50 (µM)
Your answer should be a plain number; it is taken to be in µM.

Per the records, this compound ( O=[N+]([O-])c1cn2c(n1)SC(COc1ccc(Oc3ccccc3)cc1)C2 (centres undefined) ) has IC50 equal to 56

For this compound ( O=[N+]([O-])c1cn2c(n1)OC(COc1ccc(Oc3ccccc3)cc1)C2 (centres undefined) ), measured IC50 is 19

The measured IC50 associated with CC1(COc2ccc(OC(F)(F)F)cc2)Cn2nc([N+](=O)[O-])nc2[S+]1[O-] (centres undefined) reads 0.74

The value of IC50 measured for the compound CC1(COc2ccc(OC(F)(F)F)cc2)Cn2nc([N+](=O)[O-])nc2S1(=O)=O (centres undefined) turned out to be 0.42

###

# assay-procedure: Cytotoxicity against human MRC5 SV2 cells after 72 hrs by resazurin dye based fluorescence assay
# Type: cell-based
# conditions: Homo sapiens, MRC-5 SV2, 72 h
pIC50: −log10 of the molar value.
Answer each item with its documented pIC50.

Please fill in: pIC50 reported for CC1(COCc2ccc(Oc3ccccc3)cc2)Cn2c([N+](=O)[O-])cnc2S1 (centres undefined) = < 4.19

For record CC1(COc2ccc(OC(F)(F)F)cc2)Cn2nc(Br)nc2S1 (centres undefined) the listed pIC50 is 4.38

Noted for CC1(COCc2ccc(OC(F)(F)F)cc2)Cn2cc([N+](=O)[O-])nc2[S+]1[O-] (stereo in doubt; 18) : its pIC50 reads < 4.19

pIC50 in this record for CC1(COc2ccc(Oc3ccccc3)cc2)Cn2cc([N+](=O)[O-])nc2S1 (centres undefined) : < 4.19

Entry CC1(COCc2ccc(OC(F)(F)F)cc2)Cn2cc([N+](=O)[O-])nc2S1(=O)=O (centres undefined) , pIC50 reported as < 4.19

Reported pIC50 for CC1(COCc2ccc(OC(F)(F)F)cc2)Cn2c([N+](=O)[O-])cnc2S1 (centres undefined) was 4.33

The compound O=[N+]([O-])c1cn2c(n1)SC(COCc1ccc(OC(F)(F)F)cc1)C2 (centres undefined) showed pIC50 equal to < 4.19

Notebook: CC1(COc2ccc(OC(F)(F)F)cc2)Cn2cc([N+](=O)[O-])nc2S1(=O)=O (centres undefined) , pIC50 read as < 4.19

Memo: CC1(COCc2ccc(-c3ccc(C(F)(F)F)cc3)cc2)Cn2cc([N+](=O)[O-])nc2S1 (centres undefined) , reported pIC50: < 4.19

Consider CC1(COc2ccc(Oc3ccccc3)cc2)Cn2cc([N+](=O)[O-])nc2S1(=O)=O (centres undefined) . Its measured pIC50 is 4.35

Reported pIC50 of CC1(COc2ccc(OC(F)(F)F)cc2)Cn2cc([N+](=O)[O-])nc2S1 (centres undefined) : < 4.19

Form field pIC50, entry CC1(COc2ccc(Oc3ccccc3)cc2)Cn2cc([N+](=O)[O-])nc2O1 (centres undefined) : < 4.19

The reported value for C[C@]1(COCc2ccc(OC(F)(F)F)cc2)Cn2cc([N+](=O)[O-])nc2S1 in terms of pIC50 is 4.37

Lab note: measured pIC50 of CC1(COCc2ccc(-c3ccc(F)cc3)cc2)Cn2cc([N+](=O)[O-])nc2S1 (centres undefined) was < 4.19

# pIC50 of CC1(COc2ccc(OC(F)(F)F)cc2)Cn2cc([N+](=O)[O-])nc2[S+]1[O-] (stereo in doubt; 37) = < 4.19

Entry CC1(COc2ccc(-c3ccc(C(F)(F)F)cc3)cc2)Cn2cc([N+](=O)[O-])nc2S1 (centres undefined) — recorded pIC50 = < 4.19

Recorded result, CC1(COc2ccc(-c3ccc(OC(F)(F)F)cc3)cc2)Cn2cc([N+](=O)[O-])nc2S1 (centres undefined) , pIC50: < 4.19

pIC50 reading for CC1(COc2ccc(Oc3ccccc3)cc2)Cn2cc([N+](=O)[O-])nc2[S+]1[O-] (stereo in doubt; 39) : 4.28

# pIC50 of CC1(COc2ccc(-c3ccc(F)cc3)cc2)Cn2cc([N+](=O)[O-])nc2S1 (centres undefined) = < 4.19

###

# System: Leishmania infantum
# assay-procedure: Anti-parasitic activity against Leishmania infantum MHOM/MA(BE)/67 amastigotes infected in mouse primary peritoneal macrophages after 5 days by giemsa staining based microscopic method
# Type: functional
# conditions: Leishmania infantum, MHOM/MA(BE)/67, 120 h
So I've got a bunch of compounds here, and I need their pIC50 values.
# log scale: pIC50 equals minus log10 of the concentration in mol/L

Reported pIC50 of O=[N+]([O-])c1cn2c(n1)SC(COCc1ccc(OC(F)(F)F)cc1)C2 (configuration not stated) : 4.19

So, O=[N+]([O-])c1cn2c(n1)SC(COc1ccc(Oc3ccccc3)cc1)C2 (configuration not stated) ? Its pIC50 was 4.25

Please fill in: pIC50 reported for CC1(COCc2ccc(-c3ccc(C(F)(F)F)cc3)cc2)Cn2cc([N+](=O)[O-])nc2S1 (configuration not stated) = 4.25

Entry under test: CC1(COCc2ccc(-c3ccc(OC(F)(F)F)cc3)cc2)Cn2cc([N+](=O)[O-])nc2S1 (configuration not stated) . Its pIC50 was 4.25

Per the records, this compound ( CC1(COc2ccc(Oc3ccccc3)cc2)Cn2cc([N+](=O)[O-])nc2[S+]1[O-] (stereo in doubt; 39) ) has pIC50 equal to 4.26

The compound identified as CC1(COc2ccc(-c3ccc(OC(F)(F)F)cc3)cc2)Cn2cc([N+](=O)[O-])nc2S1 (configuration not stated) registered its pIC50 at 4.35

# pIC50 of CC1(COCc2ccc(Oc3ccccc3)cc2)Cn2c([N+](=O)[O-])cnc2S1 (configuration not stated) = 4.26

# compound CC1(COc2ccc(N3CCC(Oc4ccc(OC(F)(F)F)cc4)CC3)cc2)Cn2cc([N+](=O)[O-])nc2S1 (configuration not stated) ; its pIC50 = 4.28

For this compound ( CC1(COc2ccc(OC(F)(F)F)cc2)Cn2nc([N+](=O)[O-])nc2[S+]1[O-] (configuration not stated) ), measured pIC50 is 6.05

# compound CC1(COc2ccc(OC(F)(F)F)cc2)Cn2nc([N+](=O)[O-])nc2S1(=O)=O (configuration not stated) ; its pIC50 = 5.89

// CC1(COCc2ccc(OC(F)(F)F)cc2)Cn2cc([N+](=O)[O-])nc2S1 (configuration not stated) : pIC50 value = 4.24

pIC50 recorded for this compound, CC1(COc2ccc(Oc3ccccc3)cc2)Cn2cc([N+](=O)[O-])nc2S1(=O)=O (configuration not stated) , is 4.26

Lab book: pIC50 of O=[N+]([O-])c1cn2c(n1)OC(COc1ccc(Oc3ccccc3)cc1)C2 (configuration not stated) noted as 5.47

###

# assay-procedure: Stability in pooled human liver microsomes assessed as compound remaining measured after 1 hr
# Type: ADME, microsome
# conditions: read-out: Stability
value-kind: remaining at 1 h (%)
Provide only the numeric value, understood in %.

molecule O=[N+]([O-])c1cn2c(n1)OC[C@@H](COc1ccc(OC(F)(F)F)cc1)C2 , remaining at 1 h observed: 82

According to the records, this molecule C[C@]1(COCc2ccc(OC(F)(F)F)cc2)Cn2cc([N+](=O)[O-])nc2S1 displays remaining at 1 h of 29

Lab note: measured remaining at 1 h of C[C@]1(COc2ccc(N3CCC(Oc4ccc(OC(F)(F)F)cc4)CC3)cc2)Cn2cc([N+](=O)[O-])nc2O1 was 71

Entry under test: CC1(COc2ccc(-c3ccc(OC(F)(F)F)cc3)cc2)Cn2cc([N+](=O)[O-])nc2S1 (centres undefined) . Its remaining at 1 h was 84
